target: the molecule itself; assay: two-hybrid; mammalian two-hybrid in HeLa cells: GAL4 DNA-BD (pM) and VP16 DNA-AD (pVP) fusions, pG5luc firefly luciferase normalised to Renilla luciferase, 24 h post-transfection; percent of the wt N-N interaction
ENDPOINT NAME: M2H % of interaction (%)
Express your answer in %, writing the number without its unit.

>>> value_measured("UUKV-N protein point mutant I14A, mammalian two-hybrid fusions (natural protein, Uukuniemi virus nucleocapsid (N) protein, 254 aa residues; Mutation introduced into both the DNA-BD and the DNA-AD fusion; no chain carries both domains; source: HeLa, transfected, mammalian two-hybrid fusions) MAMPENWVRFAIEASDAQWEEEEIREFINLFQYQGFDAAVVLSRIFELAKKADLSRDQMLRDIRALITLHLTRGNKLSSIEKRLSEEGKKEFALLKARYQLVDKAKEAADLTLSRIAIANAGLTCRILPQVVAHTAVTRSRMESLSADYPVCMMHNAFAGLIDETLPEDSIKALVDAHRLYLLEFSRTINVKHRGMEAKEILDANDSALQAGLASSFLTPSQKRAYLLSFKLVDGNGKVNKAVQQAATVLRSLI")
60

Would you mind telling me what M2H % of interaction value was observed for UUKV-N protein point mutant I24A, mammalian two-hybrid fusions (natural protein, Uukuniemi virus nucleocapsid (N) protein, 254 aa residues; Mutation introduced into both the DNA-BD and the DNA-AD fusion; no chain carries both domains; source: HeLa, transfected, mammalian two-hybrid fusions) MAMPENWVRFAIEISDAQWEEEEAREFINLFQYQGFDAAVVLSRIFELAKKADLSRDQMLRDIRALITLHLTRGNKLSSIEKRLSEEGKKEFALLKARYQLVDKAKEAADLTLSRIAIANAGLTCRILPQVVAHTAVTRSRMESLSADYPVCMMHNAFAGLIDETLPEDSIKALVDAHRLYLLEFSRTINVKHRGMEAKEILDANDSALQAGLASSFLTPSQKRAYLLSFKLVDGNGKVNKAVQQAATVLRSLI ?
56

Would you mind telling me what M2H % of interaction value was observed for UUKV-N protein point mutant F10A, mammalian two-hybrid fusions (natural protein, Uukuniemi virus nucleocapsid (N) protein, 254 aa residues; Mutation introduced into both the DNA-BD and the DNA-AD fusion; no chain carries both domains; source: HeLa, transfected, mammalian two-hybrid fusions) MAMPENWVRAAIEISDAQWEEEEIREFINLFQYQGFDAAVVLSRIFELAKKADLSRDQMLRDIRALITLHLTRGNKLSSIEKRLSEEGKKEFALLKARYQLVDKAKEAADLTLSRIAIANAGLTCRILPQVVAHTAVTRSRMESLSADYPVCMMHNAFAGLIDETLPEDSIKALVDAHRLYLLEFSRTINVKHRGMEAKEILDANDSALQAGLASSFLTPSQKRAYLLSFKLVDGNGKVNKAVQQAATVLRSLI ?
34
